Listed compounds paired with reported GI50
System: SW-620
protocol_text: NCI tumour cell line growth inhibition, 48 h
Activity calls are given as the source filed them. Rule as the data show it: active = GI50 up to about 1.1 µM and inactive = higher.
quantity: GI50

INSERT INTO results (compound, quantity, value_observed) VALUES
  ('S=C(N/N=C/c1ccccc1)NC12CC3CC(CC(C3)C1)C2', 'GI50', '30.5 µM (inactive)'),
  ('C=C(C)COC1CCCCO1 (stereo unspecified)', 'GI50', '> 100 µM (inactive)'),
  ('CC(C)Cc1ccc(C(C)C(=O)N2CCN(/C=C/c3ccccc3)CC2)cc1 (stereo unspecified)', 'GI50', '15.6 µM (inactive)'),
  ('CC1CCCCCC(=O)c2c(O)cc(O)cc2CC(=O)O1 (stereo unspecified) [CURVULARIN]', 'GI50', '> 100 µM (inactive)'),
  ('NCC1OC(n2cnc3c(N)ncnc32)CC1O (stereo unspecified)', 'GI50', '> 100 µM (inactive)'),
  ('NNC(=O)CC(=O)Nc1ccc(S(=O)(=O)c2ccc(NC(=O)CC(=O)NN)cc2)cc1', 'GI50', '> 100 µM (inactive)');
